Measured On: KRas G12C (Homo sapiens (Human), UniProt P01116, G12C)
Sequence (P01116-2 other isoform, or with tags, fused parts or gaps G12C): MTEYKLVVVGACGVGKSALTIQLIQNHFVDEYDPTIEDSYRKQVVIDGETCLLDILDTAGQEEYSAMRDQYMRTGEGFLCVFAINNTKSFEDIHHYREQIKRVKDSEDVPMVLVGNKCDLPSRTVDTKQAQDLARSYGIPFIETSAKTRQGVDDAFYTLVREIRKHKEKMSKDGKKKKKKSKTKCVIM
Measurement Description: Nucleotide exchange assay (NEA)-HTRF, SOS1 catalyzed displacement of GDP by GTP (Test Example 4)
Endpoint: log10 of IC50 (log10 of the value in µM)
The figures below represent log10 of IC50, where IC50 is stated in µM.

// below: answered compounds
C=CC(=O)N1C[C@@H]2C(=O)N(C)c3c(c4cc(F)c(-c5c(O)cccc5F)nc4n(-c4c(C)cnn4C(C)C)c3=O)N2C[C@H]1C (single isomer, unassigned) [Compound Z33-1]: -0.29
C=CC(=O)N1C[C@@H]2C(=O)N(C)c3c(c4cc(F)c(-c5c(O)cccc5F)nc4n(-c4c(C)ccnc4C(C)C)c3=O)N2C[C@H]1C [Compound Z10]: -1.17

Endpoint output: log10 of IC50 of C=CC(=O)N1CCN2c3c(c(=O)n(-c4c(C)ccnc4C(C)C)c4nc(-c5c(O)cccc5F)c(F)cc34)OC[C@H]2C1 [Compound Z1] . Value?
-0.59

Endpoint output: log10 of IC50 of C=CC(=O)N1CCN2c3c(c(=O)n(-c4c(C)ccnc4C(C)C)c4nc(-c5c(O)cccc5F)c(Cl)cc34)NC(=O)[C@H]2C1 (single isomer, unassigned) [Compound Z24-2] . Value?
-1.42

Endpoint output: log10 of IC50 of [2H]C([2H])([2H])N1C(=O)[C@H]2CN(C(=O)C=C)CCN2c2c1c(=O)n(-c1c(C)ccnc1C(C)C)c1nc(-c3c(O)cccc3F)c(Cl)cc21 (single isomer, unassigned) [Compound Z26-2] . Value?
-1.40

Endpoint output: log10 of IC50 of C=CC(=O)N1C[C@@H]2C(=O)N(C)c3c(c4cc(F)c(-c5c(O)cccc5F)nc4n(-c4c(C)ccnc4C(C)C)c3=O)N2C[C@H]1C (single isomer, unassigned) [Compound Z10-1] . Value?
-0.15

Endpoint output: log10 of IC50 of C=CC(=O)N1CCN2c3c(c(=O)n(-c4c(C(C)C)ccnc4C(C)C)c4c(F)c(-c5c(O)cccc5F)c(Cl)cc34)N(C)C(=O)[C@H]2C1 [Compound Z37] . Value?
-1.70

Endpoint output: log10 of IC50 of C=CC(=O)N1C[C@@H]2C(=O)N(C)c3c(c4cc(F)c(-c5c(O)cccc5F)nc4n(-c4c(C#N)cccc4C(C)C)c3=O)N2C[C@H]1C (atropisomer, axis not shown) [Compound Z38-2] . Value?
0.33

Endpoint output: log10 of IC50 of C=CC(=O)N1CCN2c3c(c(=O)n(-c4c(C)ccnc4C(C)C)c4nc(-c5c(O)cccc5F)c(Cl)cc34)NC(=O)[C@H]2C1 (single isomer, unassigned) [Compound Z24-1] . Value?
-0.54

Endpoint output: log10 of IC50 of C=CC(=O)N1CCN2c3c(c(=O)n(-c4c(C)ncnc4C(C)C)c4nc(-c5c(O)cccc5F)c(F)cc34)N(C)C(=O)[C@H]2C1 [Compound Z21] . Value?
-0.41

Endpoint output: log10 of IC50 of C=CC(=O)N1C[C@@H]2C(=O)Nc3c(c4cc(F)c(-c5c(O)cccc5F)nc4n(-c4c(C)ccnc4C(C)C)c3=O)N2C[C@H]1C [Compound Z35] . Value?
-1.14
